Molecular target: UniProtKB P21589
Assay: Inhibitor activity against CD73 in cell based assay (CD73 expressing CHO-K1 cells)
Settings: CHO-K1 cells expressing human CD73, 150 μM AMP, 4 hours of incubation; read-out: CHO-K1 CELL_VARIANT: CD73 IC50
pIC50: −log10 of the molar value.
Reported pIC50 by item:

As a guide, the following entries are already answered.
[[record]]
structure_string = "O=C(CO)N1CCC(c2ccnc(O[C@@H]3CCN(c4cn[nH]c(=O)c4Cl)C3)c2)CC1"
target_or_test_system = "UniProtKB P21589"
observed = "5.00 to 9.00"

[[record]]
structure_string = "O=c1[nH]ncc(N2CC[C@@H](Oc3cc(N4CCN(S(=O)(=O)NC5CC5)CC4)ccn3)C2)c1Cl"
target_or_test_system = "UniProtKB P21589"
observed = "5.00 to 9.00"

[[record]]
structure_string = "O=c1[nH]ncc(N2CC[C@@H](Oc3cc(C4CCOCC4)ccn3)C2)c1Cl"
target_or_test_system = "UniProtKB P21589"
observed = "5.00 to 9.00"

[[record]]
structure_string = "O=c1[nH]ncc(N2CC[C@@H](Oc3cc(-n4cccc4)ccn3)C2)c1Cl"
target_or_test_system = "UniProtKB P21589"
observed = "5.00 to 9.00"

[[record]]
structure_string = "O=C(O)Cc1ccc(-c2ccnc(O[C@@H]3CCN(c4cn[nH]c(=O)c4Cl)C3)c2)c(F)c1"
target_or_test_system = "UniProtKB P21589"
observed = "4.00 to 5.00"

[[record]]
structure_string = "CS(=O)(=O)N1CC=C(c2ccnc(O[C@@H]3CCN(c4cn[nH]c(=O)c4Cl)C3)c2)CC1"
target_or_test_system = "UniProtKB P21589"
observed = "4.00 to 5.00"

[[record]]
structure_string = "O=C(Nc1ccc(-c2ccnc(O[C@@H]3CCN(c4cn[nH]c(=O)c4Cl)C3)c2)c(F)c1)NC1CC1"
target_or_test_system = "UniProtKB P21589"
observed = "5.00 to 9.00"


Which pIC50 value belongs to `CC(C)C(=O)Nc1ccc(-c2ccnc(O[C@@H]3CCN(c4cn[nH]c(=O)c4Cl)C3)c2)c(F)c1` ?
5.00 to 9.00

====

Biological target: human CD73 (Homo sapiens, UniProt P21589)
Sequence (P21589 27-549): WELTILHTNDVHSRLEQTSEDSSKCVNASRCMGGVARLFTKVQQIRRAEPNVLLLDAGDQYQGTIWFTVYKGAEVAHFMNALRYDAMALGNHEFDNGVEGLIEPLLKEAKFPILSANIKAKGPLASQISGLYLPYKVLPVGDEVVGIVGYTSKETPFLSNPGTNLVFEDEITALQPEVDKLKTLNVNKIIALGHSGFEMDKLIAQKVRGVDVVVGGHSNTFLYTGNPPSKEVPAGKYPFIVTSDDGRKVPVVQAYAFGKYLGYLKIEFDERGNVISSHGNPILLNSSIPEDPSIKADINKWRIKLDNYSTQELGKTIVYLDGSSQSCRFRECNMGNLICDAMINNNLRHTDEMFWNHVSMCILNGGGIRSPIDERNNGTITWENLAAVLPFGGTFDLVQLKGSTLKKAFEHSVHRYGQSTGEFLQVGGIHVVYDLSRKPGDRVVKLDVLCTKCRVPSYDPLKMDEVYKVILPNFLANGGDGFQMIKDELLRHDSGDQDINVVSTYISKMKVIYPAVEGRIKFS
Experiment: Inhibitor activity against CD73 in cell based assay (CD73 expressing CHO-K1 cells)
Conditions: CHO-K1 cells expressing human CD73, 150 μM AMP, 4 hours of incubation; read-out: CHO-K1 CELL_VARIANT: CD73 IC50
pIC50: −log10 of the molar value.
Reported pIC50 by item:

Field: pIC50 (human CD73 (Homo sapiens, UniProt P21589)). Entry: Cc1nn(CC23CC(C#N)(C2)C3)c(C)c1-c1ccnc(O[C@@H]2CCN(c3cnn(CCO)c(=O)c3Cl)C2)c1 [P-0034]
5.00 to 9.00

Field: pIC50 (human CD73 (Homo sapiens, UniProt P21589)). Entry: Cc1noc(C)c1-c1ccnc(O[C@@H]2CCN(c3cn[nH]c(=O)c3Br)C2)c1 [P-0066]
5.00 to 9.00

====

Molecular target: human CD73 (Homo sapiens, UniProt P21589)
Test: Inhibitor activity against CD73 in cell based assay (CD73 expressing CHO-K1 cells)
Conditions: CHO-K1 cells expressing human CD73, 150 μM AMP, 4 hours of incubation; read-out: CHO-K1 CELL_VARIANT: CD73 IC50
measurement-type: IC50

As a guide, the following entries are already answered.
[[record]]
compound = "CC1(C)CNCCN1c1ccnc(O[C@@H]2CCN(c3cn[nH]c(=O)c3Cl)C2)c1"
target_or_test_system = "human CD73 (Homo sapiens, UniProt P21589)"
measurement_type = "IC50"
observed = "10 to 100 µM"

[[record]]
compound = "Cc1noc(C)c1-c1ccnc(O[C@H]2CN(c3cnn(CCO)c(=O)c3Cl)C[C@@H]2F)c1"
target_or_test_system = "human CD73 (Homo sapiens, UniProt P21589)"
measurement_type = "IC50"
observed = "0.001 to 10 µM"

[[record]]
compound = "O=c1[nH]ncc(N2CC[C@@H](Oc3cc(-c4ccc(NS(=O)(=O)C5CC5)cc4)ccn3)C2)c1Cl"
target_or_test_system = "human CD73 (Homo sapiens, UniProt P21589)"
measurement_type = "IC50"
observed = "0.001 to 10 µM"


Field: IC50 (human CD73 (Homo sapiens, UniProt P21589)). Entry: `O=c1[nH]ncc(N2CC[C@@H](Oc3ncccc3NC3CCC(F)(F)CC3)C2)c1Cl`
0.001 to 10 µM

Field: IC50 (human CD73 (Homo sapiens, UniProt P21589)). Entry: `Cc1nn(C2COC2)c(C)c1-c1cc(O[C@@H]2CCN(c3cnn(CCO)c(=O)c3Cl)C2)ncc1F`
0.001 to 10 µM

Field: IC50 (human CD73 (Homo sapiens, UniProt P21589)). Entry: `Cc1nn(CC2CCC2)c(C)c1-c1cc(F)nc(O[C@@H]2CCN(c3cn[nH]c(=O)c3Cl)C2)c1`
0.001 to 10 µM

Field: IC50 (human CD73 (Homo sapiens, UniProt P21589)). Entry: `Cc1nn(C)c(C)c1-c1cc(O[C@@H]2CCN(c3cnn(CCO)c(=O)c3Cl)C2)ncc1F`
0.001 to 10 µM

Field: IC50 (human CD73 (Homo sapiens, UniProt P21589)). Entry: `Cc1nn(CC(C)(C)O)c(C)c1-c1cc(O[C@@H]2CCN(c3cn[nH]c(=O)c3Cl)C2)ncn1`
0.001 to 10 µM

Field: IC50 (human CD73 (Homo sapiens, UniProt P21589)). Entry: `O=c1c(Cl)c(N2CC[C@@H](Oc3cc(C4CCNCC4)ccn3)C2)cnn1CCO`
0.001 to 10 µM
